Test system: RPMI-8226
Assay: NCI tumour cell line growth inhibition, 48 h
Activity calls are given as the source filed them. No stated cut-off is given here; in the data, active = GI50 up to about 1.1 µM and inactive = higher.
Observation Type: GI50

Would you please look over these solved cases?
CCCCCCCC[N+](C)(C)Cc1ccc(C[N+](C)(C)CCCCCCCC)cc1
90.2 µM (inactive)
Cc1cc2c(=O)cc(-c3ccc(Cl)cc3Cl)oc2c(C(=O)O)c1C
> 100 µM (inactive)
Cc1ccc2nc(/C=N/c3ccccc3Cl)cc(C)c2c1
8.75 µM (inactive)
C/C(=N\NC(=S)Nc1ccc(Cl)cc1)c1nc2cccnc2[nH]1
3.27 µM (inactive)
CCc1nc(N)nc(N)c1-c1ccc(NC)c([N+](=O)[O-])c1
3.72 µM (inactive)

-- ask GI50 of COC(=O)CC1N/C(=N\C#N)N(CCc2c[nH]c3ccccc23)C1=O (stereo unspecified) on RPMI-8226?
-- reply > 100 µM (inactive)

-- ask GI50 of Cc1ccc(S(=O)(=O)NC(=O)NC(Cc2ccc(O)c(O)c2)C(=O)O)cc1 (stereo unspecified) on RPMI-8226?
-- reply 55.7 µM (inactive)

-- ask GI50 of ClC1c2ccccc2C2(c3ccccc3)OOC1(c1ccccc1)O2 (stereo unspecified) on RPMI-8226?
-- reply 0.716 µM (active)

-- ask GI50 of `O=C(NC1(C(=O)O)CCCC1)c1ccccc1` on RPMI-8226?
-- reply > 100 µM (inactive)

-- ask GI50 of `Cc1cc(C)c(NC(=S)NC(=O)c2ccccc2)cc1C` on RPMI-8226?
-- reply > 100 µM (inactive)

Origin of values: ChEMBL document CHEMBL1201862
